Protocol details: in vivo
Assay context: marmoset

Smiles repr	Unit abbreviation	half-life
COCCCOc1cc(C[C@@H](C[C@H](N)[C@@H](O)C[C@H](C(=O)NCC(C)(C)C(N)=O)C(C)C)C(C)C)ccc1OC.Cl	h	8.7

----------
Protocol details: in vivo
Assay context: rat, po

Smiles repr	bioavailability, %
COCCCOc1cc(C[C@@H](C[C@H](N)[C@@H](O)C[C@H](C(=O)NCC(C)(C)C(N)=O)C(C)C)C(C)C)ccc1OC.Cl	2.4

----------
Target of assay: Renin (Homo sapiens)
Sequence (P00797 whole entry): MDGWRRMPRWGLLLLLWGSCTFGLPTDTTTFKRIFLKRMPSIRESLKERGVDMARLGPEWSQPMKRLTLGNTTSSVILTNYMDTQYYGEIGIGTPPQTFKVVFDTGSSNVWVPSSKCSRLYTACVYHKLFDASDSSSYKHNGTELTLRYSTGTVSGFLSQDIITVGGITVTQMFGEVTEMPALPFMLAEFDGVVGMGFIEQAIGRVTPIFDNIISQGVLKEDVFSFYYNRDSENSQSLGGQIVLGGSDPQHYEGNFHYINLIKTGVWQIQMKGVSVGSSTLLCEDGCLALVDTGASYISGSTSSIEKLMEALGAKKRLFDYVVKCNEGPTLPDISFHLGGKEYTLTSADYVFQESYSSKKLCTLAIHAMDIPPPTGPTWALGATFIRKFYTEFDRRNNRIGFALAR
Classify by IC50. Ranges: class 0 (below 1 nM), class 1 (1 nM to below 3 nM), class 2 (3 nM or more)

Smiles repr	Answer label
COCCCOc1cc(C[C@@H](C[C@H](N)[C@@H](O)C[C@H](C(=O)N[C@H](C)CC(N)=O)C(C)C)C(C)C)ccc1OC	class 2
CNC(=O)C(C)(C)CNC(=O)[C@@H](C[C@H](O)[C@@H](N)C[C@H](Cc1ccc(OC)c(OCCCOC)c1)C(C)C)C(C)C.Cl	class 0
COCCCOc1cc(C[C@@H](C[C@H](N)[C@@H](O)C[C@H](C(=O)NC(C)(C)CN2CCOCC2)C(C)C)C(C)C)ccc1OC	class 2
COCCCCc1cc(C[C@@H](C[C@H](N)[C@@H](O)C[C@H](C(=O)NCCN2CCOCC2)C(C)C)C(C)C)ccc1OC.Cl	class 1
COCCCOc1cc(C[C@@H](C[C@H](N)[C@@H](O)C[C@H](C(=O)NCC(C)(C)N2CCOCC2)C(C)C)C(C)C)ccc1OC	class 0
CC[C@H](NC(=O)[C@@H](C[C@H](O)[C@@H](N)C[C@H](Cc1ccc(OC)c(OCCCOC)c1)C(C)C)C(C)C)C(N)=O	class 0
COCCCOc1cc(C[C@@H](C[C@H](N)[C@@H](O)C[C@H](C(=O)NC[C@@H]2CCC(=O)N2)C(C)C)C(C)C)ccc1OC.Cl	class 0
COCCCOc1cc(C[C@@H](C[C@H](N)[C@@H](O)C[C@H](C(=O)N[C@@H](CO)C(N)=O)C(C)C)C(C)C)ccc1OC	class 1
COCCCOc1cc(C[C@@H](C[C@H](N)[C@@H](O)C[C@H](C(=O)NC(C)(C)C(N)=O)C(C)C)C(C)C)ccc1OC	class 2

Entry source: ChEMBL document CHEMBL1148801
